Tested on: CDK17
Design: species or system human, MV4-11 + K-562 + COLO205 + SK-N-BE2 + OVCAR-8
Conditions: read-out: apparent Kd; compound concentrations:100 nM and 1000 nM (sheet 'Samples'); n = 1
ATTRIBUTE MEASURED: potency estimated from few doses (nM)
One number for each entry, in nM.

Before answering, review these 4 worked examples.
molecule="CCN1CCN(CCCC(=O)Nc2n[nH]c3nc(-c4ccc(O)cc4)c(Br)cc23)CC1 [SB-731579]" attribute_measured="potency estimated from few doses" number=986
molecule="N#Cc1cccc(Nc2nccc(-c3cnn4ncccc34)n2)c1 [GW778894X]" attribute_measured="potency estimated from few doses" number=44.8
molecule="NS(=O)(=O)c1ccc(Nc2ncc(-c3ccccc3)o2)cc1 [GW572399X]" attribute_measured="potency estimated from few doses" number=2100
molecule="COc1cccc(F)c1C(=O)c1cnc(NC2CCN(S(C)(=O)=O)CC2)nc1N [RO4602005-000]" attribute_measured="potency estimated from few doses" number=73.2

Answer with the recorded potency estimated from few doses of CC(C)(CO)CNC(=O)c1ccc2c(c1)/C(=N/Nc1ccc(S(N)(=O)=O)cc1)C(=O)N2 [GW301784X] only.
212
